test system: DU-145; test: Antiproliferative activity against human DU145 cells after 48 hrs by MTT assay; format: functional, cell-based; details: DU-145, 48 h
Catalogue of molecules with associated IC50
METRIC: IC50 (µM)

{"columns": ["MOLECULE", "METRIC", "UNIT_NAME", "NUMERIC_VALUE"],
 "data": [
  ["Cc1ccc(-c2nc(C(c3c[nH]c4ccc(C#N)cc34)c3c[nH]c4ccc(C#N)cc34)cc3c2[nH]c2ccccc23)cc1", "IC50", "µM", 7.32],
  ["COc1ccc2[nH]cc(C(c3cc4c([nH]c5ccccc54)c(-c4ccc(F)cc4)n3)c3c[nH]c4ccc(OC)cc34)c2c1", "IC50", "µM", 10.6],
  ["COc1cc(-c2nc(C(c3c[nH]c4ccccc34)c3c[nH]c4ccc(C#N)cc34)cc3c2[nH]c2ccccc23)cc(OC)c1OC (stereo not drawn)", "IC50", "µM", 19],
  ["Fc1ccc(-c2nc(C(c3c[nH]c4ccc(Br)cc34)c3c[nH]c4ccc(Br)cc34)cc3c2[nH]c2ccccc23)cc1", "IC50", "µM", 7.74],
  ["COc1ccc2[nH]cc(C(c3cc4c([nH]c5ccccc54)c(-c4cc(OC)c(OC)c(OC)c4)n3)c3c[nH]c4ccccc34)c2c1 (stereo not drawn)", "IC50", "µM", 19.5],
  ["O=[N+]([O-])c1ccc2[nH]cc(C(c3cc4c([nH]c5ccccc54)c(-c4ccc(F)cc4)n3)c3c[nH]c4ccc([N+](=O)[O-])cc34)c2c1", "IC50", "µM", 1.92],
  ["Cc1ccc(-c2nc(C(c3c[nH]c4ccc([N+](=O)[O-])cc34)c3c[nH]c4ccc([N+](=O)[O-])cc34)cc3c2[nH]c2ccccc23)cc1", "IC50", "µM", 6],
  ["COc1cccc2c1C(=O)c1c(O)c3c(c(O)c1C2=O)C[C@@](O)(C(=O)CO)C[C@@H]3O[C@H]1C[C@H](N)[C@H](O)[C@H](C)O1", "IC50", "µM", 2.13],
  ["COc1ccc(-c2nc(C(c3c[nH]c4ccccc34)c3c[nH]c4ccc(C#N)cc34)cc3c2[nH]c2ccccc23)cc1 (stereo not drawn)", "IC50", "µM", 14.8],
  ["COc1cc(-c2nc(C(c3c[nH]c4ccccc34)c3c[nH]c4ccccc34)cc3c2[nH]c2ccccc23)cc(OC)c1OC", "IC50", "µM", 12.8],
  ["COc1ccc(-c2nc(C(c3c[nH]c4ccc(OC)cc34)c3c[nH]c4ccc(OC)cc34)cc3c2[nH]c2ccccc23)cc1", "IC50", "µM", 16.3],
  ["Fc1ccc(-c2nc(C(c3c[nH]c4ccccc34)c3c[nH]c4ccccc34)cc3c2[nH]c2ccccc23)cc1", "IC50", "µM", 1.8],
  ["Cc1ccc(-c2nc(C(c3c(C)[nH]c4ccc([N+](=O)[O-])cc34)c3c(C)[nH]c4ccc([N+](=O)[O-])cc34)cc3c2[nH]c2ccccc23)cc1", "IC50", "µM", 15]
]}
